assay: qHTS assay to identify small molecule antagonists of the estrogen receptor alpha (ER-alpha) signaling pathway using the BG1 cell line (AID 743080); conditions: BG1Luc4E2 ERE-luciferase antagonist mode, luminescence; series mostly up to 70.3 µM;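 also: BG1 cells stimulated with 17beta-estradiol alongside compound; nearly all actives have a fitted effect of over 25% in size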
Inconclusive results are not listed. The source made the active and inactive calls. Calls follow the shape of the full dose curve.
The reply should be one of these categories: Y = active, N = inactive

Req: Answer briefly: the call reported for NC(Cc1ccccc1)C(=O)O (configuration not stated) in this assay.
Resp: N

Req: Answer briefly: the call reported for Cc1cc(Nc2ccccc2C(=O)O)ccc1Cl in this assay.
Resp: N

Req: Answer briefly: the call reported for CN1C(=O)CN2CCc3ccccc3C2c2cc(Cl)ccc21 (configuration not stated) in this assay.
Resp: Y

Req: Answer briefly: the call reported for S=C=Nc1ccc(N=C=S)cc1 in this assay.
Resp: N

Req: Answer briefly: the call reported for CCCCC(=O)O[C@H]1CC[C@H]2[C@@H]3CCc4cc(O)ccc4[C@H]3CC[C@]12C in this assay.
Resp: N

Req: Answer briefly: the call reported for CCN(CC)c1ccc(N=Nc2ccc(S(=O)(=O)N(C)C)cc2)c(S(=O)(=O)NCC[n+]2ccccc2)c1 in this assay.
Resp: N

Req: Answer briefly: the call reported for CCCCCCCC(=O)CC[C@@H]1[C@@H](C/C=C\CCCC(=O)OC(C)C)[C@@H](O)C[C@H]1O in this assay.
Resp: N

Req: Answer briefly: the call reported for CC1(C)S[C@@H]2[C@H](NC(=O)C(C(=O)O)c3ccsc3)C(=O)N2[C@H]1C(=O)O (some centres not stated) in this assay.
Resp: N

Req: Answer briefly: the call reported for CNC[C@@H]1CC[C@@H](N)[C@@H](O[C@H]2[C@H](O)[C@@H](O[C@H]3OC[C@](C)(O)[C@H](NC)[C@H]3O)[C@H](N)C[C@@H]2N)O1 in this assay.
Resp: N

Req: Answer briefly: the call reported for CCC[C@@H]1C[C@@H](C(=O)N[C@@H]([C@H]2O[C@H](SC)[C@H](O)[C@@H](O)[C@H]2O)[C@H](C)Cl)N(C)C1 in this assay.
Resp: N

Req: Answer briefly: the call reported for Cc1cc2nc3c(=O)[nH]c(=O)nc-3n(C[C@H](O)[C@H](O)[C@H](O)COP(=O)(O)OP(=O)(O)OC[C@H]3O[C@@H](n4cnc5c(N)ncnc54)[C@H](O)[C@@H]3O)c2cc1C in this assay.
Resp: N

Req: Answer briefly: the call reported for CC(C)[C@@H](C)/C=C/[C@@H](C)[C@H]1CC[C@H]2/C(=C/C=C3\C[C@@H](O)CC[C@@H]3C)CCC[C@]12C in this assay.
Resp: N

Req: Answer briefly: the call reported for O=c1oc2cc(O)ccc2s1 in this assay.
Resp: N

Req: Answer briefly: the call reported for N[C@H](CC(=O)O)C(=O)O in this assay.
Resp: N

Req: Answer briefly: the call reported for CCOC(=O)CCC(=O)O[C@H]1[C@H](O[C@@H]2[C@@H](C)[C@H](O[C@H]3C[C@@](C)(OC)[C@@H](O)[C@H](C)O3)[C@@H](C)C(=O)O[C@H](CC)[C@@](C)(O)[C@H](O)[C@@H](C)C(=O)[C@H](C)C[C@@]2(C)O)O[C@H](C)C[C@@H]1N(C)C in this assay.
Resp: N

Req: Answer briefly: the call reported for CC1(C)S[C@@H]2[C@H](NC(=O)Cc3ccccc3)C(=O)N2[C@H]1C(=O)O in this assay.
Resp: N

Req: Answer briefly: the call reported for Cc1c(O)cc2c(c1C)O[C@](C)(CCC[C@H](C)CCC[C@H](C)CCCC(C)C)CC2 in this assay.
Resp: N

Measured values drawn from PubChem BioAssay (Tox21) for this set.
